Reference source: patent US11406622B2

tested on: human keratinocytes (HaCaT); assay: Effect on proliferation of human keratinocytes, CCK-8, 48 h (Example 5); type: cell-based; conditions: 48 hours of treatment
I'd appreciate it if you marked entries met when IC50 is lower than 7 µM and not met when it is not.

Consider C=C1C(=O)C23C(O)CC4C(C)(C)c5nc(N(CCC)CCC)sc5CC4(C)C2CCC1C3O (stereo not shown) . Does its IC50 lie strictly below 7 µM?
met

Consider C=C1C(=O)C23C(O)CC4C(C)(C)c5nc(N)sc5CC4(C)C2CCC1C3O (stereo not shown) [Compound 09] . Does its IC50 lie strictly below 7 µM?
met

Consider C=C1C(=O)C23C(O)CC4C(C)(C)c5nc(Nc6ccncc6)sc5CC4(C)C2CCC1C3O (stereo not shown) . Does its IC50 lie strictly below 7 µM?
met

Consider C=CCNc1nc2c(s1)CC1(C)C(CC(O)C34C(=O)C(=C)C(CCC13)C4O)C2(C)C (stereo not shown) . Does its IC50 lie strictly below 7 µM?
not met

Consider C=C1C(=O)C23C(O)CC4C(C)(C)c5nc(N(C)C)sc5CC4(C)C2CCC1C3O (stereo not shown) . Does its IC50 lie strictly below 7 µM?
met

Consider C=C1C(=O)C23C(O)CC4C(C)(C)c5nc(N(CC)CC)sc5CC4(C)C2CCC1C3O (stereo not shown) . Does its IC50 lie strictly below 7 µM?
met

Consider C=C1C(=O)C23C(O)CC4C(C)(C)c5nc(N)sc5CC4(C)C2CCC1C3O (stereo not shown) [Compound 07] . Does its IC50 lie strictly below 7 µM?
met

Consider C=C1C(=O)C23C(O)CC4C(C)(C)c5nc(NCc6ccccc6)sc5CC4(C)C2CCC1C3O (stereo not shown) . Does its IC50 lie strictly below 7 µM?
not met

Consider C=C1C(=O)C23C(O)CC4C(C)(C)c5nc(N)sc5CC4(C)C2CCC1C3O (stereo not shown) [Compound 02] . Does its IC50 lie strictly below 7 µM?
met

Consider Br.C=C1C(=O)C23C(O)CC4C(C)(C)c5nc(N(C)C)sc5CC4(C)C2CCC1C3O (stereo not shown) . Does its IC50 lie strictly below 7 µM?
met

Consider C=C1C(=O)C23C(O)CC4C(C)(C)c5nc(NCCCC)sc5CC4(C)C2CCC1C3O (stereo not shown) . Does its IC50 lie strictly below 7 µM?
not met
